Biological target: T1, human isoleucine zipper-CD40L (IZ-hCD40L) (human, UniProt P29965 113-261)
T1 sequence: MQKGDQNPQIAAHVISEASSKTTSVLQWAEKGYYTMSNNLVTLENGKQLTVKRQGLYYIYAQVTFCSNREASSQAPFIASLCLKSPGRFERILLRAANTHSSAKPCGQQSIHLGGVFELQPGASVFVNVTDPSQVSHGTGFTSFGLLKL
Assay: cell-based or functional assay
readout_kind: hIZCD40L-driven Human B Cell Proliferation EC50

binder: BMS2h-780 (other) VH: EVQLLESGGGLVQPGGSLRLSCAASGFTFGSYTMMWVRQAPGKGLEWVSEIDRTGERTYYADSVKGRFTISRDNSKNTLYLQMNSLRAEDTAVYYCAEPGFASLPFDYWGQGTLVTVSS
value_observed: > 7 µM

Challenge: // Input: BMS2h-725-2 (other) VH: EVQLLESGGGLVQPGGSLRLSCAASGFTFSAYTMGWVRQAPGKGLEWVSLIGDRGSWTYYADSVKGRFTISRDNSKNTLYLQMNSLRAEDTAVYYCAEPSDPTKFVYWGQGTPVTVSS . Output its hIZCD40L-driven Human B Cell Proliferation EC50 only.
Response given: > 7 µM

Challenge: // Input: BMS2h-784 (other) VH: EVQLLESGGGLVQPGGSLRLSCAASGFTFDRAGMGWVRQAPGKGLEWVSLIGRGGDITYYADSVKGRFTISRDNSKNTLYLQMNSLRAEDTAVYYCAKIRNLHWDVGRQFDYWGQGTLVTVSS . Output its hIZCD40L-driven Human B Cell Proliferation EC50 only.
Response given: > 4.7 µM

Challenge: // Input: BMS2h-725 (other) VH: EVQLLESGGGLVQPGGSLRLSCAASGFTFSAYTMGWVRQAPGKGLEWVSLIGDRGSWTYYADSVKGRFTISRDNSKNTLYLQMNSLRAEDTAVYYCAEPSDPTKFDYWGQGTLVTVSS . Output its hIZCD40L-driven Human B Cell Proliferation EC50 only.
Response given: 6.4 µM

Challenge: // Input: BMS2h-719-19 (other) VH: EVQLLESGGGWVQPGGSLRLSCAASGFTFKRYEMMWVRQAPGKGLEWVSSISSDGSFTYYADSVKGRFTISRDNSKNTLYLQMNSLRAEDTAVYYCADPFTEFDYWGQGTLVTVSS . Output its hIZCD40L-driven Human B Cell Proliferation EC50 only.
Response given: 0.138 µM

Challenge: // Input: BMS2h-774 (other) VH: EVQLLESGGGLVQPGGSLRLSCAASGFTFREYDMGWVRQAPGKGLEWVSLISPPGRTTYYADSVKGRFTISRDNSKNTLYLQMNSLRAEDTAVYYCAKVVILGYTNRFDYWGQGTLVTVSS . Output its hIZCD40L-driven Human B Cell Proliferation EC50 only.
Response given: > 7 µM

Challenge: // Input: BMS2h-572 (other) VH: EVQLLESGGGLVQPGGSLRLSCAASGFTFNWQLMGWVRQAPGKGLEWVSGIEGPGDVTYYADSVKGRFTISRDNSKNTLYLQMNSLRAEDTAVYYCAKVGKESNFDYRGQGTLVTVSS . Output its hIZCD40L-driven Human B Cell Proliferation EC50 only.
Response given: > 7 µM

Challenge: // Input: BMS2h-730 (other) VL: DIQMTQSPSSLSASVGDRVTITCRASQDIKDWLHWYQQKPGKAPKLLIYFASGLQSGVPSRFSGSGSGTDFTLTISSLQPEDSATYYCQQHYSTPYTSGQGTKVEIKR . Output its hIZCD40L-driven Human B Cell Proliferation EC50 only.
Response given: > 7 µM

Challenge: // Input: BMS2h-572-619 (other) VH: EVQLLESGGGLVQPGGSLRLSCAASGFTFNWQLMGWVRQAPGKGLEWVSGIEGPGDVTYYADSVKGRFTISRDNSKNTLYLQMNSLRAEDTAVYYCVKVGKDSRSDYRGQGTLVTVSS . Output its hIZCD40L-driven Human B Cell Proliferation EC50 only.
Response given: 0.09 µM

Challenge: // Input: BMS2h-746 (other) VH: EVQLLESGGGLVQPGGSLRLSCAASGFTFGSAEMGWVRQAPGKGLEWVSGISRPGQVTYYADSVKGRFTISRDNSKNTLYLQMNSLRAEDTAVYYCAKIRNLHWDVGRQFDYWGQGTLVTVSS . Output its hIZCD40L-driven Human B Cell Proliferation EC50 only.
Response given: > 7 µM

Challenge: // Input: BMS2h-745-14 (other) VH: EVQLLESGGGLVQPGGSLRLSCAASGFTFDNTEMAWIRQAPGKGLEWVSGITEDGNRTYYADSVKGRFTISRDNSKNTLYLQMNSLRAEDTAVYYCAKIRNLHWDVGRQFDYWGQGTLVTVSS . Output its hIZCD40L-driven Human B Cell Proliferation EC50 only.
Response given: > 7 µM

Challenge: // Input: BMS2h-116-1319 (other) VL: DIQMTQSPSSLSASVGDRVTITCRASQPIGPDLLWYQQKPGKAPKLLIYQTSIMRSGVPSRFSGSGSETDFTLTISNLQPEDFATYYCQQYWTFPVTFGQGTKVEIKR . Output its hIZCD40L-driven Human B Cell Proliferation EC50 only.
Response given: 0.18 µM

Challenge: // Input: BMS2h-766 (other) VH: EVQLLESGGGLVQPGGSLRLSCAASGFTFGDYGMSWVRQAPGKGLEWVSYIDPLGRLTYYADSVKGRFTISRDNSKNTLYLQMNSLRAEDTAVYYCAEDLSSLQYGVSPNFDYWGQGTLVTVSS . Output its hIZCD40L-driven Human B Cell Proliferation EC50 only.
Response given: > 7 µM

Challenge: // Input: BMS2h-719-17 (other) VH: EVQLLESGGGLVQPGGSLRLSCAASGFTFKRYEMSWVRQAPGKGLEWVSSISSDGSFTYYADSVKGRFTISRDNSKNTLYLQMNSLRAEDTAVYYCADPFTEIDYWGQGTQVTVSS . Output its hIZCD40L-driven Human B Cell Proliferation EC50 only.
Response given: 0.132 µM

Challenge: // Input: BMS2h-758-4 (other) VH: EVQLLESGGGLVQPGGSLRLSCAASGFTFGDYGMNWVRQAPGKGLEWVSHISSNGRFTYYADSVKGRFTISRDNSKNTLFLQMNSLRAEDTAVYYCAETSGYYEYWGHGTLVTVSS . Output its hIZCD40L-driven Human B Cell Proliferation EC50 only.
Response given: > 7 µM
